Molecular target: NTRK2 (Homo sapiens (Human))
Sequence (Q16620 32-822): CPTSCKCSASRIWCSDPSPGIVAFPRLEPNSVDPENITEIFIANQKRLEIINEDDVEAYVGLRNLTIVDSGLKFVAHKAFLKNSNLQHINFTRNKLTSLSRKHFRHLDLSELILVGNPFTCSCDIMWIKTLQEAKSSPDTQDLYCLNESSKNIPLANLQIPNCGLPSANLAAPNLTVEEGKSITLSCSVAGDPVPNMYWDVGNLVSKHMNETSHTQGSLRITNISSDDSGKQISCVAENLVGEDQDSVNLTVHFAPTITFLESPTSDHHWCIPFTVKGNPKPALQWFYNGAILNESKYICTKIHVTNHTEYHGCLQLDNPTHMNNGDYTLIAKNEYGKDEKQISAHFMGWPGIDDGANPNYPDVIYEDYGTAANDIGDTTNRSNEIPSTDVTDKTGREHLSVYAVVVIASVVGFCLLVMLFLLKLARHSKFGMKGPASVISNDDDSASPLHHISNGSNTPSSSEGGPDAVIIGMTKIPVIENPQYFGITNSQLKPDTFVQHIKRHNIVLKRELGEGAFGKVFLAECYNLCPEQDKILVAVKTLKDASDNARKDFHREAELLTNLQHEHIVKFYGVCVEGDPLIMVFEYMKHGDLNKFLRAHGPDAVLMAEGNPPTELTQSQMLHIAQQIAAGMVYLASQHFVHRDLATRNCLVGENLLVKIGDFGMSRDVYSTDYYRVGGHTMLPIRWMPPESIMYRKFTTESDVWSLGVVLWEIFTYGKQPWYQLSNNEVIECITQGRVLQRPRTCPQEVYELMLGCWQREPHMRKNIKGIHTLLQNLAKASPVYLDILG
pIC50: −log10 of the molar value.
Please enter Fulfilled where pIC50 is greater than or equal to 8, and Not fulfilled where it is lower.

Solved cases below.
1. CN(C)C(=O)[C@H](Cc1cccc([N+](=O)[O-])c1)NC(=O)Nc1c(Cl)cccc1C(F)(F)F ... Not fulfilled
2. CC(C)N(Cc1ccc2[nH]ccc2c1)C(=O)COc1ccc(OC(F)(F)F)cc1 ... Not fulfilled

q: # check: pIC50 of CC(C)N(Cc1ccn2ncc(C(N)=O)c2c1)C(=O)COc1ccc(OC(F)(F)F)cc1 is greater than or equal to 8
a: Fulfilled

q: Please do the same for CC(C)N(Cc1ccn2ncc(C(N)=O)c2c1)C(=O)CNc1ccc(OC(F)(F)F)cc1 as well.
a: Not fulfilled

q: Please do the same for C=C(C)c1ccc(OCC(=O)N(Cc2ccn3ncc(C(N)=O)c3c2)C(C)C)cc1 as well.
a: Not fulfilled

q: Please do the same for O=C(O)c1cnn2ccc(CN(C(=O)Nc3ccc(OC(F)(F)F)cc3)C3CC3)cc12 as well.
a: Fulfilled

q: Please do the same for CC(C)N(Cc1ccn2ncc(C(N)=O)c2c1)C(=O)Nc1ccc(OC(F)(F)F)cc1 as well.
a: Fulfilled

q: Please do the same for CC(C)N(Cc1ccn2nccc2c1)C(=O)Nc1ccc(OC(F)(F)F)cc1 as well.
a: Fulfilled

q: Please do the same for CC(C)N(Cc1ccn2ncc(C(N)=O)c2c1)C(=S)Nc1ccc(OC(F)(F)F)cc1 as well.
a: Fulfilled

q: Please do the same for O=C(Nc1ccc(OC(F)(F)F)cc1)N(Cc1ccn2nccc2c1)C1CCCC1 as well.
a: Not fulfilled

q: Please do the same for O=C(Nc1ccccc1OC(F)(F)F)N(Cc1ccn2nccc2c1)C1CCC1 as well.
a: Not fulfilled
